The reported numbers originate from patent US10604512B2.

system: SW480 colon cancer cells; test: Cell viability assay (CellTiter-Blue) in SW480 colon cancer cells; assay type: cell-based; conditions: Homo sapiens, 96 h, four days, CellTiter-Blue
pEC50: −log10 of the molar value.
readout kind: pEC50

{"given smiles": "CC(C)C(=O)Nc1cncc(-c2ccc3[nH]nc(-c4cc5c(-c6ccccc6F)cccc5[nH]4)c3c2)c1", "pEC50": 6.01}
{"given smiles": "Fc1cccc(-c2cccc3[nH]c(-c4n[nH]c5ccc(-c6ccccn6)cc45)cc23)c1", "pEC50": "< 5.00"}
{"given smiles": "c1ccc2[nH]c(-c3n[nH]c4ccc(-c5cncc(CN6CCCCC6)c5)cc34)cc2c1", "pEC50": "< 5.00"}

## Input Give its pEC50 value. Item: CC(C)(C)CC(=O)Nc1cncc(-c2ccc3[nH]nc(-c4cc5ccccc5[nH]4)c3c2)c1
## Output < 5.00

## Input Give its pEC50 value. Item: CC(C)(C)CC(=O)Nc1cncc(-c2ccc3[nH]nc(-c4cc5c(-c6ccc(F)cc6)cccc5[nH]4)c3c2)c1
## Output < 5.00

====

Tested on: SW480 colon cancer cells
Test: Cell viability assay (CellTiter-Blue) in SW480 colon cancer cells
Type: cell-based
Settings: Homo sapiens, 96 h, four days, CellTiter-Blue
Method: Representative compounds were screened using the following assay procedure to assess the effect on cell viability as described below. Each compound was dissolved in DMSO as a 10 mM stock and used to prepare compound source plates. […] After incubation, 20 μL of CellTiter-Blue (Promega) was added to each well allowed to incubate for approximately 3 hours. […] This measured fluorescence was used as a readout for cell viability. […]
pEC50 for assorted molecules
Please treat pEC50 as minus the base-10 logarithm of the molar concentration.

Example molecules with recorded pEC50:
{"molecule": "COc1cncc(-c2ccc3[nH]nc(-c4cc5c(-c6ccsc6)cccc5[nH]4)c3c2)c1 [Compound 704]", "measured target": "SW480 colon cancer cells", "pEC50": 5.74}
{"molecule": "c1csc(-c2cccc3[nH]c(-c4n[nH]c5ccc(-c6ccncc6)cc45)cc23)c1 [Compound 354]", "measured target": "SW480 colon cancer cells", "pEC50": 5.05}
{"molecule": "NC1CN(c2cncc(-c3ccc4[nH]nc(-c5cc6c(N7CCCCC7)cccc6[nH]5)c4c3)n2)C1 [Compound 634]", "measured target": "SW480 colon cancer cells", "pEC50": 5.90}

## Input Under SW480 colon cancer cells: pEC50 value of c1ccc2[nH]c(-c3n[nH]c4ccc(-c5cncc(CN6CCCC6)c5)cc34)cc2c1 [Compound 266] ?
## Output 5.98

## Input Under SW480 colon cancer cells: pEC50 value of CN(C)CCNc1cc(F)cc(-c2cccc3[nH]c(-c4n[nH]c5ccc(-c6cncc(N7CC(N)C7)n6)cc45)cc23)c1 [Compound 810] ?
## Output 6.34

## Input Under SW480 colon cancer cells: pEC50 value of CN(C)Cc1cncc(-c2ccc3[nH]nc(-c4cc5c(-c6ccncc6)cccc5[nH]4)c3c2)c1 [Compound 125] ?
## Output 6.39

## Input Under SW480 colon cancer cells: pEC50 value of O=C(Nc1cncc(-c2ccc3[nH]nc(-c4cc5ncccc5[nH]4)c3c2)c1)c1ccccc1 [Compound 515] ?
## Output 5.96

## Input Under SW480 colon cancer cells: pEC50 value of CS(=O)(=O)NCc1cc(F)cc(-c2cccc3[nH]c(-c4n[nH]c5ccc(-c6cncc(NC(=O)c7ccccc7)c6)cc45)cc23)c1 [Compound 487] ?
## Output 5.50

====

system: SW480 colon cancer cells; experiment: Cell viability assay (CellTiter-Blue) in SW480 colon cancer cells; format: cell-based; conditions: Homo sapiens, 96 h, four days, CellTiter-Blue
pEC50: −log10 of the molar value.
pEC50 for assorted compounds

Example compounds with recorded pEC50:
{"given smiles": "c1cc(N2CCCCC2)c2cc(-c3n[nH]c4ccc(-c5cncc(OC6CCCCC6)c5)cc34)[nH]c2c1", "val": "< 5.00"}
{"given smiles": "CC(C)(C)CC(=O)Nc1cncc(-c2ccc3[nH]nc(-c4cc5c(-c6ccccc6F)cccc5[nH]4)c3c2)c1", "val": "< 5.00"}

Now let's try a different one.
## Input Give its pEC50 value. Item: c1ccc(-c2ccc3[nH]nc(-c4cc5c(-c6ccncc6)cccc5[nH]4)c3c2)nc1
## Output < 5.00

====

pEC50 for assorted molecules
system: IL-6; assay: Inhibition of IL-6 in LPS-stimulated THP-1 human monocyte cells (HTRF); format: cell-based; settings: IL-6 inhibition, LPS-stimulated THP-1 cells, HTRF
Please treat pEC50 as minus the base-10 logarithm of the molar concentration.

{"molecule": "Cc1ccncc1-c1ccc2[nH]nc(-c3cc4c(-c5cccc(F)c5)cccc4[nH]3)c2c1 [Compound 5]", "pEC50": 6.08}
{"molecule": "c1cc(-c2ccoc2)c2cc(-c3n[nH]c4ccc(-c5cnccn5)cc34)[nH]c2c1 [Compound 724]", "pEC50": 7.51}
{"molecule": "c1cncc(-c2ccc3[nH]nc(-c4cc5c(-c6cccs6)cccc5[nH]4)c3c2)c1 [Compound 340]", "pEC50": 7.74}

Now let's try a different one.
## Input Give its pEC50 value. Item: c1cncc(-c2cccc3[nH]c(-c4n[nH]c5ccc(-c6cn[nH]c6)cc45)cc23)c1 [Compound 583]
## Output 7.11

====

system: SW480 colon cancer cells; assay: Cell viability assay (CellTiter-Blue) in SW480 colon cancer cells; type: cell-based; conditions: Homo sapiens, 96 h, four days, CellTiter-Blue
pEC50 for assorted compounds
Please treat pEC50 as minus the base-10 logarithm of the molar concentration.

Example compounds with recorded pEC50:
{"compound": "Cc1ccncc1-c1ccc2[nH]nc(-c3cc4c(-c5cc(F)cc(CNS(C)(=O)=O)c5)cccc4[nH]3)c2c1 [Compound 481]", "pEC50": 6.05}
{"compound": "CCNCc1cncc(-c2ccc3[nH]nc(-c4cc5c(-c6ccncc6)cccc5[nH]4)c3c2)c1 [Compound 118]", "pEC50": 6.28}
{"compound": "CN(C)CCNc1cc(F)cc(-c2cccc3[nH]c(-c4n[nH]c5ccc(-c6cncc(NC(=O)Cc7ccccc7)c6)cc45)cc23)c1 [Compound 458]", "pEC50": 6.12}
{"compound": "Fc1ccccc1-c1cccc2[nH]c(-c3n[nH]c4ccc(-c5cncc(CN6CCCCC6)c5)cc34)cc12 [Compound 71]", "pEC50": 5.66}
{"compound": "CN(C)Cc1cncc(-c2ccc3[nH]nc(-c4cc5c(-c6cccc(F)c6)cccc5[nH]4)c3c2)c1 [Compound 13]", "pEC50": 6.31}
{"compound": "CN(C)CCNc1cc(F)cc(-c2cccc3[nH]c(-c4n[nH]c5ccc(-c6cncc(NC(=O)C7CCC7)c6)cc45)cc23)c1 [Compound 469]", "pEC50": 6.54}

## Input Give its pEC50 value. Item: CCCC(=O)Nc1cncc(-c2ccc3[nH]nc(-c4cc5c(N6CCCCC6)cccc5[nH]4)c3c2)c1 [Compound 185]
## Output 5.73

## Input Give its pEC50 value. Item: Fc1ccccc1-c1cccc2[nH]c(-c3n[nH]c4ccc(-c5ccccn5)cc34)cc12 [Compound 84]
## Output 5.38

====

EC50 for assorted compounds
tested on: IL-6; test: Inhibition of IL-6 in LPS-stimulated THP-1 human monocyte cells (HTRF); format: cell-based; details: IL-6 inhibition, LPS-stimulated THP-1 cells, HTRF

Example compounds with recorded EC50:
{"given smiles": "Fc1ccc(-c2cccc3[nH]c(-c4n[nH]c5ccc(C6=CCNCC6)cc45)cc23)cc1", "val": "> 10 µM"}
{"given smiles": "CC(C)(C)CC(=O)Nc1cncc(-c2ccc3[nH]nc(-c4cc5ccccc5[nH]4)c3c2)c1", "val": "> 10 µM"}
{"given smiles": "c1cc(-c2ccncc2)c2cc(-c3n[nH]c4ccc(-c5ccncc5)cc34)[nH]c2c1", "val": "> 10 µM"}
{"given smiles": "FC1(F)CCN(Cc2cncc(-c3ccc4[nH]nc(-c5cc6c(-c7ccoc7)cccc6[nH]5)c4c3)c2)C1", "val": "0.475 µM"}
{"given smiles": "c1cc(-c2ccoc2)c2cc(-c3n[nH]c4ccc(-c5cncc(CN6CCCCC6)c5)cc34)[nH]c2c1", "val": "0.593 µM"}

Now let's try a different one.
## Input Under IL-6: EC50 value of O=C(Nc1cncc(-c2ccc3[nH]nc(-c4cc5c(-c6ccc(F)cc6)cccc5[nH]4)c3c2)c1)c1ccccc1 ?
## Output > 10 µM

====

EC50 for assorted molecules
Test system: IL-6
Experiment: Inhibition of IL-6 in LPS-stimulated THP-1 human monocyte cells (HTRF)
Type: cell-based
Settings: IL-6 inhibition, LPS-stimulated THP-1 cells, HTRF
Procedure: Human monocyte cell line (THP-1 cells; Catalog # TIB-202, ATCC, Manassas, Va.) were cultured in Roswell Park Memorial Institute (RPMI) 1640 Medium (Catalog #21870-100, Buffalo, N.Y.) with 1% L-glutamine, 1% HEPES, 1% Sodium Pyruvate, 2% Sodium Bicarbonate supplemented with 100 units/mL penicillin, 50 μg/mL streptomycin, 2-mercaptoethanol (0.05 mM) [basal medium] and 10% fetal bovine serum (Catalog #16140089, Life Technologies, Carlsbad, Calif.) at 37° C. and 5% CO2. […]
The answer is to be given in nM; state only the numeric part.

Example molecules with recorded EC50:
{"molecule": "Fc1ccc(-c2cccc3[nH]c(-c4n[nH]c5ccc(-c6cncnc6)cc45)cc23)cc1 [Compound 55]", "EC50, nM": 488}
{"molecule": "c1ccc2[nH]c(-c3n[nH]c4ccc(-c5cncc(CN6CCCC6)c5)cc34)cc2c1 [Compound 266]", "EC50, nM": 233}

## Input Give its EC50 value. Item: CN(C)CCNc1cc(F)cc(-c2cccc3[nH]c(-c4n[nH]c5ccc(-c6cncc(NC(=O)Cc7ccccc7)c6)cc45)cc23)c1 [Compound 458]
## Output 354
